Target system: UniProt Q13133
Assay notes: Agonist activity at LXRalpha (unknown origin) expressed in CHOK1 cells incubated for 24 hrs by GAL4-responsive luciferase reporter gene assay relative to 10 uM T0901317
Format: cell-based
Condition details: CHO-K1
Rule: YES for Emax not less than 50%, NO for anything less.

> print(dat)
                                   molecule  label.class
1  CCCc1cc(C(O)(C(F)(F)F)C(F)(F)F)cc(CCC)c1OCCCCN1C(=O)NC(C)(c2ccc3c(c2)OCO3)C1=O (stereo not given)          YES
2  CCCc1cc(C(O)(C(F)(F)F)C(F)(F)F)ccc1OCCCCN1C(=O)NC(CCC)(c2ccc3c(c2)OCO3)C1=O (stereo not given)           NO
3  CCCc1cc(C(O)(C(F)(F)F)C(F)(F)F)ccc1OCCCCN1C(=O)NC(C)(c2ccc3c(c2)OCO3)C1=O (stereo not given)          YES
4  CCCc1cc(C(O)(C(F)(F)F)C(F)(F)F)cc(CCC)c1OCCCCN1C(=O)NC(CC)(c2ccc3c(c2)OCO3)C1=O (stereo not given)          YES
5  CCCc1cc(C(O)(C(F)(F)F)C(F)(F)F)ccc1OCCCCN1C(=O)NC(CC)(c2ccc3c(c2)OCO3)C1=O (stereo not given)          YES

---

Target system: Oxysterols receptor LXR-beta (Homo sapiens)
Assay notes: Agonist activity at LXRbeta (unknown origin) expressed in CHOK1 cells incubated for 24 hrs by GAL4-responsive luciferase reporter gene assay
Assay type: cell-based, CHO-K1
pEC50: −log10 of the molar value.
Readout label: pEC50

> print(dat)
                                   compound  measured
1  CCCc1cc(C(O)(C(F)(F)F)C(F)(F)F)cc(CCC)c1OCCCCN1C(=O)NC(CC)(c2ccc3c(c2)OCO3)C1=O (stereo not given)      6.15
2  CCCc1cc(C(O)(C(F)(F)F)C(F)(F)F)ccc1OCCCCN1C(=O)NC(CCC)(c2ccc3c(c2)OCO3)C1=O (stereo not given)      5.89
3  CCCc1cc(C(O)(C(F)(F)F)C(F)(F)F)ccc1OCCCCN1C(=O)NC(CC)(c2ccc3c(c2)OCO3)C1=O (stereo not given)      6.15
4  CCCc1cc(C(O)(C(F)(F)F)C(F)(F)F)cc(CCC)c1OCCCCN1C(=O)NC(C)(c2ccc3c(c2)OCO3)C1=O (stereo not given)      7.00
5  CCCc1cc(C(O)(C(F)(F)F)C(F)(F)F)ccc1OCCCCN1C(=O)NC(C)(c2ccc3c(c2)OCO3)C1=O (stereo not given)      6.30

---

Assay notes: Clearance in hamster hepatic microsomes
Format: ADME
Condition details: cricetinae, liver microsomes; read-out: CLH
Readout label: microsomal CLint (µL/min/mg)

> print(dat)
                                   compound  measured
1  CCCc1cc(C(O)(C(F)(F)F)C(F)(F)F)ccc1OCCCCN1C(=O)NC(C)(c2ccc3c(c2)OCO3)C1=O (stereo unspecified)       351

---

Assay notes: Plasma concentration in CE-2 chow diet-fed golden Syrian hamster at 100 mg/kg, po after 8 hrs by HPLC-LC-MS/MS method
Assay type: ADME, organism-based, Mesocricetus auratus
Readout label: concentration at 8 h (nM)

> print(dat)
                                   molecule  measured
1  CCCc1cc(C(O)(C(F)(F)F)C(F)(F)F)cc(CCC)c1OCCCCN1C(=O)NC(C)(c2ccc(OC(C)C)cc2)C1=O (stereo unspecified)       420

---

Target system: Oxysterols receptor LXR-alpha (Homo sapiens, UniProt Q13133)
Sequence (Q13133 whole entry): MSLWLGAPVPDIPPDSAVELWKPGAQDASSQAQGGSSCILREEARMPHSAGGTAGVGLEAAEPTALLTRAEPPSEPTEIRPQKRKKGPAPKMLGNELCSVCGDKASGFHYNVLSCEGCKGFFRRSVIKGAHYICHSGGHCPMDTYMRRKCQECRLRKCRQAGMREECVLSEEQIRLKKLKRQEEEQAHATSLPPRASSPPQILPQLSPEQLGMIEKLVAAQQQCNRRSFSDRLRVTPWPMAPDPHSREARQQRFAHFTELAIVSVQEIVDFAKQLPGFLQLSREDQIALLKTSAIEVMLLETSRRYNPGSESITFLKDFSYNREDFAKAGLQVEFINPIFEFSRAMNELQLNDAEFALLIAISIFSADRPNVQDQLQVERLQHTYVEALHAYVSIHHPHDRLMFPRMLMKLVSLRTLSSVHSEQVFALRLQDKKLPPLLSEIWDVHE
Assay notes: Agonist activity at LXRalpha (unknown origin) expressed in CHOK1 cells incubated for 24 hrs by GAL4-responsive luciferase reporter gene assay
Readout label: EC50 (nM)

> print(dat)
                                   molecule  readout.label  measured
1  CCCc1cc(C(O)(C(F)(F)F)C(F)(F)F)ccc1OCCCCN1C(=O)NC(CCC)(c2ccc3c(c2)OCO3)C1=O (stereo not given)           EC50      2300
2  CCCc1cc(C(O)(C(F)(F)F)C(F)(F)F)ccc1OCCCCN1C(=O)NC(C)(c2ccc3c(c2)OCO3)C1=O (stereo not given)           EC50      1700
3  CCCc1cc(C(O)(C(F)(F)F)C(F)(F)F)cc(CCC)c1OCCCCN1C(=O)NC(C)(c2ccc3c(c2)OCO3)C1=O (stereo not given)           EC50       400
4  CCCc1cc(C(O)(C(F)(F)F)C(F)(F)F)ccc1OCCCCN1C(=O)NC(CC)(c2ccc3c(c2)OCO3)C1=O (stereo not given)           EC50      1500
5  CCCc1cc(C(O)(C(F)(F)F)C(F)(F)F)cc(CCC)c1OCCCCN1C(=O)NC(CC)(c2ccc3c(c2)OCO3)C1=O (stereo not given)           EC50       600

---

Assay notes: Clearance in mouse hepatic microsomes
Format: ADME
Condition details: liver microsomes, read-out: CLH
Readout label: microsomal CLint (µL/min/mg)

> print(dat)
                                   compound     readout.label  unit.info  measured
1  CCCc1cc(C(O)(C(F)(F)F)C(F)(F)F)ccc1OCCCCN1C(=O)NC(C)(c2ccc3c(c2)OCO3)C1=O (stereo unspecified)  microsomal CLint  µL/min/mg        73

---

Assay notes: Cmax in CE-2 chow diet-fed golden Syrian hamster at 100 mg/kg, po after 6 hrs by HPLC-LC-MS/MS method
Assay type: ADME, organism-based, Mesocricetus auratus
Set-up: dose 100 mg/kg, route oral
Condition details: in vivo
Readout label: Cmax

> print(dat)
                                   compound  measured
1  CCCc1cc(C(O)(C(F)(F)F)C(F)(F)F)cc(CCC)c1OCCCCN1C(=O)NC(C)(c2ccc(OC(C)C)cc2)C1=O (stereo unspecified)    600 nM

---

Assay notes: Plasma concentration in CE-2 chow diet-fed golden Syrian hamster at 100 mg/kg, po after 1 hr by HPLC-LC-MS/MS method
Format: ADME, organism-based, Mesocricetus auratus
Readout label: concentration at 1 h (nM)

> print(dat)
                                   compound  measured
1  CCCc1cc(C(O)(C(F)(F)F)C(F)(F)F)cc(CCC)c1OCCCCN1C(=O)NC(C)(c2ccc(OC(C)C)cc2)C1=O (stereo unspecified)       490

---

Assay notes: Plasma concentration in CE-2 chow diet-fed golden Syrian hamster at 100 mg/kg, po after 3 hrs by HPLC-LC-MS/MS method
Type: ADME, organism-based, Mesocricetus auratus
Readout label: concentration at 3 h (nM)

> print(dat)
                                   molecule  measured
1  CCCc1cc(C(O)(C(F)(F)F)C(F)(F)F)cc(CCC)c1OCCCCN1C(=O)NC(C)(c2ccc(OC(C)C)cc2)C1=O (stereo unspecified)       290

---

Target system: UniProt:P55055
Sequence (whole entry): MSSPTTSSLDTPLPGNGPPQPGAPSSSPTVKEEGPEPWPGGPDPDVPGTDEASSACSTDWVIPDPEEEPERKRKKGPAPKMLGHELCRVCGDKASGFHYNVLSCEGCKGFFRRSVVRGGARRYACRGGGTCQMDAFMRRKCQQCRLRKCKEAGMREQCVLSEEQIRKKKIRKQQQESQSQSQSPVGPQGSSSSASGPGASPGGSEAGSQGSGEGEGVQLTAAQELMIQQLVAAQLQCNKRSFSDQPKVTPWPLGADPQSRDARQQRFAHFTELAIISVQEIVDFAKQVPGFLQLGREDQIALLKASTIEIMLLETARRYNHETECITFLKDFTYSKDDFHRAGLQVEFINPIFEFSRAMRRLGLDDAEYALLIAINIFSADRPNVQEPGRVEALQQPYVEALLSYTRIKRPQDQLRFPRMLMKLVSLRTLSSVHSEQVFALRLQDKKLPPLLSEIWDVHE
Assay notes: Agonist activity at LXRbeta (unknown origin) expressed in CHOK1 cells incubated for 24 hrs by GAL4-responsive luciferase reporter gene assay relative to 10 uM T0901317
Assay type: cell-based
Condition details: CHO-K1
Listing of recorded Emax by entry.
Readout label: Emax

> print(dat)
                                   compound   target.system  measured
1  CCCc1cc(C(O)(C(F)(F)F)C(F)(F)F)ccc1OCCCCN1C(=O)NC(CCC)(c2ccc3c(c2)OCO3)C1=O (stereo not given)  UniProt:P55055       72%
2  CCCc1cc(C(O)(C(F)(F)F)C(F)(F)F)ccc1OCCCCN1C(=O)NC(CC)(c2ccc3c(c2)OCO3)C1=O (stereo not given)  UniProt:P55055      172%
3  CCCc1cc(C(O)(C(F)(F)F)C(F)(F)F)ccc1OCCCCN1C(=O)NC(C)(c2ccc3c(c2)OCO3)C1=O (stereo not given)  UniProt:P55055      118%
4  CCCc1cc(C(O)(C(F)(F)F)C(F)(F)F)cc(CCC)c1OCCCCN1C(=O)NC(CC)(c2ccc3c(c2)OCO3)C1=O (stereo not given)  UniProt:P55055      118%
5  CCCc1cc(C(O)(C(F)(F)F)C(F)(F)F)cc(CCC)c1OCCCCN1C(=O)NC(C)(c2ccc3c(c2)OCO3)C1=O (stereo not given)  UniProt:P55055      101%
